Emax for assorted compounds
# TESTED_SYSTEM: M4 muscarinic receptor (Homo sapiens, UniProt P08173)
# Construct: expressed in transfected cells; host or cells: CHO (M4-CHO)
# Sequence (P08173 1-479): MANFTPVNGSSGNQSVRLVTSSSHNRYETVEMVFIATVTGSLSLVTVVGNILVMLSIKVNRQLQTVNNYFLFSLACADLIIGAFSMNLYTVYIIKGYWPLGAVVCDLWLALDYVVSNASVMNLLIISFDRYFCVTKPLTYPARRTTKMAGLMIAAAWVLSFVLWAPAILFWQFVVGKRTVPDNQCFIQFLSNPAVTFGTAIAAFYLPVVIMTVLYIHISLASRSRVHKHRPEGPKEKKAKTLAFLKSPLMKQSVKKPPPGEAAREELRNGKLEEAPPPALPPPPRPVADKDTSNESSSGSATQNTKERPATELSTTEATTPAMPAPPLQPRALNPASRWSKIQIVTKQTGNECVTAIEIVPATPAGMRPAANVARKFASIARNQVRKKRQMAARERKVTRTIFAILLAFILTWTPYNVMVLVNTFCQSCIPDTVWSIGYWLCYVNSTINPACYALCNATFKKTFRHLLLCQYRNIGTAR
# EXPERIMENTAL_DETAILS: Functional mobilization of intracellular calcium (FLIPR) in M4-CHO cells
# Type: cell-based
# STATED_CONDITIONS: 100% efficacy is the maximum response obtained with the Carbachol control; Table 5
OBSERVABLE: Emax

COMPOUND: CN(C)C(=O)N1CC2(CCN(C3CCN(c4ncccn4)CC3)CC2)c2cc(F)ccc21 [compound 1032]
RESULT: 25 to 100%

COMPOUND: CC(=O)N1CC2(CCN(C3CCC4(CC3)CC(C)=NO4)CC2)c2cc(F)ccc21 (stereo not drawn) [compound 1020]
RESULT: < 25%

COMPOUND: CC(=O)N1CC2(CCN(C3CCN(c4nccs4)CC3)CC2)c2cc(F)ccc21 [compound 1019]
RESULT: 25 to 100%

COMPOUND: CN(C)C(=O)N1CC2(CCN(C3CCN(c4ccsc4)CC3)CC2)c2cc(F)ccc21 [compound 1041]
RESULT: 25 to 100%

COMPOUND: COc1cccc(N2CCC(N3CCC4(CC3)CN(C(=O)N(C)C)c3ccc(F)cc34)CC2)c1 [compound 1028]
RESULT: 25 to 100%

COMPOUND: CN(C)C(=O)N1CC2(CCN(C3CCN(c4ccccc4F)CC3)CC2)c2cc(F)ccc21 [compound 1024]
RESULT: < 25%

COMPOUND: CN(C)C(=O)N1CC2(CCN(C[C@H]3CCN(c4nccs4)C3)CC2)c2cc(F)ccc21 [compound 1037]
RESULT: 25 to 100%

COMPOUND: CN(C)C(=O)N1CC2(CCN(C[C@@H]3CCN(c4nccs4)C3)CC2)c2cc(F)ccc21 [compound 1038]
RESULT: 25 to 100%

COMPOUND: CN(C)C(=O)N1CC2(CCN(C3CCN(c4cnccn4)CC3)CC2)c2cc(F)ccc21 [compound 1031]
RESULT: 25 to 100%

COMPOUND: CN(C)C(=O)N1CC2(CCN(C3CCN(c4ccccn4)CC3)CC2)c2cc(F)ccc21 [compound 1039]
RESULT: 25 to 100%

COMPOUND: COc1ccc(N2CCC(N3CCC4(CC3)CN(C(=O)N(C)C)c3ccc(F)cc34)CC2)cc1 [compound 1029]
RESULT: 25 to 100%

COMPOUND: CN(C)C(=O)N1CC2(CCN(C[C@H]3CCN(c4cnccn4)C3)CC2)c2cc(F)ccc21 [compound 1035]
RESULT: 25 to 100%
